# key: entry, value: scaled log2 fold change
B1: library; numbered along this chain (parent)
chain: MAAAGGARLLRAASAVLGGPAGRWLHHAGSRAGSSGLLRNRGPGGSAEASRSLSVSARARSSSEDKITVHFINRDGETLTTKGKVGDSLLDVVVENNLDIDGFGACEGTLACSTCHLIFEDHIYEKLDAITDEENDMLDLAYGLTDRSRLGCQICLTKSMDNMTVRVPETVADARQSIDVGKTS

# Variants of: B1
# EXPERIMENT_NOTES: scaled log2 fold change in cell abundance, elesclomol vs control (0 = silent mean, 1 = nonsense mean) (scaled log2 ratio); higher = higher viability under elesclomol (loss of FDX1 cuproptosis function);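 further: variant abundance is its share of total variant reads in each endpoint sample, from next-generation sequencing of the integrated ORF PCR-amplified out of genomic DNA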
# CONDITION_DETAILS: with ABC1 FDX1 KO; elesclomol 5 nM; glucose 10 mM; 14 days

Answered examples (4):
S113R
0.116
E48S
0.616
D121W
0.324
Q176M
0.291

Recorded result, L53S , scaled log2 fold change: -0.175

Recorded result, S159E , scaled log2 fold change: -0.499

Recorded result, Y124Q , scaled log2 fold change: 0.286

Recorded result, G5Y , scaled log2 fold change: -0.325

Recorded result, T157P , scaled log2 fold change: 0.927

Recorded result, D132N , scaled log2 fold change: -0.0637

Recorded result, S50E , scaled log2 fold change: 0.344

Recorded result, D136Y , scaled log2 fold change: 0.0478
